Listed compounds paired with reported inhibition
Organism: Rattus norvegicus
Conditions: Liver, Membrane, 10 uM

• CCC(=O)N1C[C@H]2[C@H](N3CCCC3)CC[C@@H]1CN2C(=O)Cc1ccc(Cl)c(Cl)c1 = < 10%
• COC(=O)N1C[C@@H]2[C@@H](N3CCCC3)CC[C@H]1CN2C(=O)Cc1ccc(Cl)c(Cl)c1 = < 10%
• COC(=O)N1C[C@H]2[C@H](N3CCCC3)CC[C@@H]1CN2C(=O)Cc1ccc(Cl)c(Cl)c1 = > 1%

**Q:** Reported inhibition, compound CCC(=O)N1C[C@@H]2[C@@H](N3CCCC3)CC[C@H]1CN2C(=O)Cc1ccc(Cl)c(Cl)c1 : ____
**A:** < 10%

----------
Target: Kappa-type opioid receptor (Cavia porcellus, UniProt P41144)
Sequence (P41144 whole entry): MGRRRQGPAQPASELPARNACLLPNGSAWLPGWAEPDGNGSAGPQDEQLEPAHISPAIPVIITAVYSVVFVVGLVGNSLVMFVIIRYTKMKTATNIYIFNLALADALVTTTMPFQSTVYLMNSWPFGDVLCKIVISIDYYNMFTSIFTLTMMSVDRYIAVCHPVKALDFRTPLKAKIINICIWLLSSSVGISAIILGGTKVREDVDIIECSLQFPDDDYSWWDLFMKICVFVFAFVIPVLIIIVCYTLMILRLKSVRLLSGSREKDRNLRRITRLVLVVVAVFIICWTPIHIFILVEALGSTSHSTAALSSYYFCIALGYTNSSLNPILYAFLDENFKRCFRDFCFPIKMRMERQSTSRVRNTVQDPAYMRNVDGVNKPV
Assay Endpoint: pKi
pKi (log units): -log10 of the concentration in mol/L.

Completed entries (count: 4):
• CCC(=O)N1C[C@H]2[C@H](N3CCCC3)CC[C@@H]1CN2C(=O)Cc1ccc(Cl)c(Cl)c1 = 7.89
• O=C(Cc1ccc(Cl)c(Cl)c1)N1C[C@@H]2CC[C@@H](N3CCCC3)[C@H]1CN2Cc1ccccc1 = 6.82
• COC(=O)N1C[C@@H]2[C@H](N3CCCC3)CC[C@H]1CN2C(=O)Cc1ccc(Cl)c(Cl)c1 = 6.29
• O=C(Cc1ccc(Cl)c(Cl)c1)N1C[C@H]2CC[C@H](N3CCCC3)[C@@H]1CN2Cc1ccccc1 = 6.38

Now examine the next entry.
**Q:** Name the reported pKi value associated with the molecule COC(=O)N1C[C@@H]2[C@@H](N3CCCC3)CC[C@H]1CN2C(=O)Cc1ccc(Cl)c(Cl)c1
**A:** 6.82

----------
Entries annotated with measured Ki
Target: Delta-type opioid receptor (Homo sapiens, UniProt P41143)
Sequence (P41143 whole entry): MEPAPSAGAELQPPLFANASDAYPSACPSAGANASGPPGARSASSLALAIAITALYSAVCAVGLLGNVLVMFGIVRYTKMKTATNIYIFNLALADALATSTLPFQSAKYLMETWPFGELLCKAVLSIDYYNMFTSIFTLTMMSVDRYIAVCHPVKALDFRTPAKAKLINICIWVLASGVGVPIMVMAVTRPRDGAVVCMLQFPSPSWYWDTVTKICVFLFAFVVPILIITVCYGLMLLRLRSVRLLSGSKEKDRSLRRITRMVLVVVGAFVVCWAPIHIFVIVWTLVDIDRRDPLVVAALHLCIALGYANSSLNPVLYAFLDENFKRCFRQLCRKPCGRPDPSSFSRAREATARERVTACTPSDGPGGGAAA
Experiment: Displacement of [3H]deltorphine-2 from human delta opioid receptor expressed in CHOK1 cells

// known answers, use as guide
* CCC(=O)N1C[C@@H]2[C@H](N3CCCC3)CC[C@H]1CN2C(=O)Cc1ccc(Cl)c(Cl)c1 | > 1000 nM
* COC(=O)N1C[C@H]2[C@@H](N3CCCC3)CC[C@@H]1CN2C(=O)Cc1ccc(Cl)c(Cl)c1 | > 1000 nM

**Q:** So what Ki did CCC(=O)N1C[C@H]2[C@@H](N3CCCC3)CC[C@@H]1CN2C(=O)Cc1ccc(Cl)c(Cl)c1 get with Delta-type opioid receptor (Homo sapiens, UniProt P41143)?
**A:** > 1000 nM

----------
Collected Ki values appear next to each entry.
Assay: Displacement of [3H]ditolylguanidine from sigma2 receptor in rat liver membrane
Format: cell membranes

# annotated cases, reported Ki shown
* COC(=O)N1C[C@H]2[C@H](N3CCCC3)CC[C@@H]1CN2C(=O)Cc1ccc(Cl)c(Cl)c1 | > 1000 nM
* CCC(=O)N1C[C@@H]2[C@@H](N3CCCC3)CC[C@H]1CN2C(=O)Cc1ccc(Cl)c(Cl)c1 | > 1000 nM

Now, please, on to the next compound.
**Q:** Need Ki of CCC(=O)N1C[C@H]2[C@H](N3CCCC3)CC[C@@H]1CN2C(=O)Cc1ccc(Cl)c(Cl)c1 , thanks.
**A:** > 1000 nM

----------
// endpoint Ki / system Kappa-type opioid receptor (Cavia porcellus, UniProt P41144)

Check out these entries, answers already filled in.
• CCC(=O)N1C[C@H]2[C@@H](N3CCCC3)CC[C@@H]1CN2C(=O)Cc1ccc(Cl)c(Cl)c1 = > 1000 nM
• CCC(=O)N1C[C@@H]2[C@H](N3CCCC3)CC[C@H]1CN2C(=O)Cc1ccc(Cl)c(Cl)c1 = > 1000 nM

**Q:** Can you look up the measured Ki of O=C(Cc1ccc(Cl)c(Cl)c1)N1C[C@@H]2CC[C@H](N3CCCC3)[C@H]1CN2Cc1ccccc1 for me?
**A:** > 1000 nM
